System: HCI-010 (organoid from a breast cancer xenograft)
Test: CTG-3D luminescence at 96 h relative to day-0 seeding control (ratio to day 0); higher = more growth / less cytotoxicity; PDxO 3D drug screen, 96 h, CTG-3D normalised to day-0 seeding control.
Conditions: 0.1 µM; days in culture: 52
REPORTED PROPERTY: CTG-3D luminescence at 96 h
Numbers only.

Examples with their reported CTG-3D luminescence at 96 h follow.
STRUCTURE: O=C(/C=C/c1cccnc1)NCCCCC1CCN(C(=O)c2ccccc2)CC1
CTG-3D luminescence at 96 h: 0.204
--
STRUCTURE: O=C(c1ccc(F)c(F)c1Nc1ccc(I)cc1F)N1CC(O)([C@@H]2CCCCN2)C1
CTG-3D luminescence at 96 h: 2.62

Quick batch: CTG-3D luminescence at 96 h for everything below.
1. COc1cccc2c1C(=O)c1c(O)c3c(c(O)c1C2=O)C[C@@](O)(C(=O)CO)C[C@@H]3O[C@H]1C[C@H](N)[C@H](O)[C@H](C)O1
2. CC1(C)CCC(c2ccc(Cl)cc2)=C(CN2CCN(c3ccc(C(=O)NS(=O)(=O)c4ccc(N[C@H](CCN5CCOCC5)CSc5ccccc5)c(S(=O)(=O)C(F)(F)F)c4)cc3)CC2)C1

Marked response:
1.93
0.695

Cited source for all entries: the supplement of paper PMC8882468
